- Target Desc: endogenous CGRP receptor (Homo sapiens, UniProt O60894+Q16602)
- Sequence (Q16602 23-461): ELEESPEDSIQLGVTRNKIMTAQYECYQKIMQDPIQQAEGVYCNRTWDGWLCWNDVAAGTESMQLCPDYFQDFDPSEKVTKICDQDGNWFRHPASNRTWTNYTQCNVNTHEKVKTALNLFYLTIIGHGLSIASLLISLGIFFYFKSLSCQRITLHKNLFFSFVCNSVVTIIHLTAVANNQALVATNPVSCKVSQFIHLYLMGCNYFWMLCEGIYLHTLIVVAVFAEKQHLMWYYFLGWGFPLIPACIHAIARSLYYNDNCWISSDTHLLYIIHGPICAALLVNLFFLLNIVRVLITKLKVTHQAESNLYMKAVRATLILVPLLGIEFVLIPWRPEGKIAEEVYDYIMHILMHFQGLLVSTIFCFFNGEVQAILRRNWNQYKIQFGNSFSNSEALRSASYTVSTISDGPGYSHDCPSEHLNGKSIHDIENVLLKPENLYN
- Sequence (O60894 27-148): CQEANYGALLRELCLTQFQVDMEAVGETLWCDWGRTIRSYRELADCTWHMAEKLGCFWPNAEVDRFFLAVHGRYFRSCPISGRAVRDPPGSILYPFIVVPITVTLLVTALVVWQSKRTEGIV
- Assay Details: CGRP functional antagonism using SK-N-MC-BLA (4C10), β-lactamase transcriptional reporter assay
- Experimental Parameters: SK-N-MC (4C10) cells, inhibition of β-lactamase expression in the presence of 200 pM CGRP
Recorded Metric: IC50

>>> recorded_measurement("CC(C)CCN1C(=O)C(CC(=O)N2CCC(N3Cc4ccccc4NC3=O)CC2)S(=O)(=O)C1c1ccccc1 (stereo not drawn)")
"> 5000 nM"
>>> recorded_measurement("CC(C)(C)N1CCN(c2c(F)cccc2[C@H]2S[C@@H](CC(=O)N3CCC(N4CCc5ccccc5NC4=O)CC3)C(=O)N2CCc2ccc(F)cc2)CC1")
"< 1000 nM"
>>> recorded_measurement("Cc1cc(C)c(C2SC(CC(=O)N3CCC(N4CCc5ccccc5NC4=O)CC3)C(=O)N2CCC(C)C)c(C)c1 (stereo not drawn)")
"< 1000 nM"

====

- Target Desc: CGRP receptor (SK-N-MC membrane) (Homo sapiens, UniProt O60894+Q16602)
- Construct: Purified SK-N-MC membrane was purchased from Perkin Elmer
- Sequence (Q16602 23-461): as the sequence (Q16602 23-461) above
- Sequence (O60894 27-148): as the sequence (O60894 27-148) above
- Assay Details: I125-CGRP binding displacement assay on purified SK-N-MC membrane
pKi: −log10 of the molar value.
Recorded Metric: pKi

>>> recorded_measurement("CC(C)CCN1C(=O)C(CC(=O)N2CCC(n3c(=O)[nH]c4ccccc43)CC2)SC1c1ccccc1-n1ccnc1 (stereo not shown)")
"> 6.00"
>>> recorded_measurement("CC(C)CCN1C(=O)C(CC(=O)N2CCC(n3cc(-c4ccccc4)[nH]c3=O)CC2)SC1c1ccc(F)cc1F (stereo not shown)")
"< 5.30"
>>> recorded_measurement("COc1ccccc1C1SC(CC(=O)N2CCC(N3Cc4ccccc4NC3=O)CC2)C(=O)N1CCC(C)C (stereo not shown)")
"> 6.00"
>>> recorded_measurement("CC(C)(C)CCN1C(=O)[C@H](CC(=O)N2CCC(N3CCc4ccccc4NC3=O)CC2)SC1c1cccc(F)c1C1CCN(C2CCC2)CC1 (stereo partly shown)")
"> 6.00"

====

- Target Desc: CGRP receptor (SK-N-MC membrane) (Homo sapiens, UniProt O60894+Q16602)
- Construct: Purified SK-N-MC membrane was purchased from Perkin Elmer
- Assay Details: I125-CGRP binding displacement assay on purified SK-N-MC membrane
Recorded Metric: Ki

>>> recorded_measurement("CC(C)(C)CCN1C(=O)C(CC(=O)N2CCC(N3Cc4ccccc4NC3=O)CC2)SC1c1ccccc1N1CCN(CCO)CC1 (stereo not drawn) [Compound 371]")
"< 1000 nM"
>>> recorded_measurement("CN1CCN(c2cccc(F)c2C2SC(CC(=O)N3CCC(n4c(=O)[nH]c5ccccc54)CC3)C(=O)N2CCC(C)(C)C)CC1 (stereo not drawn) [Compound 348]")
"> 5000 nM"
>>> recorded_measurement("CC(C)(C)CCN1C(=O)[C@H](CC(=O)N2CCC(n3c(=O)[nH]c4ncccc43)CC2)SC1c1cccc(F)c1N1CCC(F)C1 (stereo partly drawn) [Compound 480]")
"< 1000 nM"
>>> recorded_measurement("CC(C)(C)CCN1C(=O)C(CC(=O)N2CCC(n3c(=O)[nH]c4ccccc43)CC2)SC1c1ccccc1-n1cccn1 (stereo not drawn) [Compound 297]")
"< 1000 nM"
>>> recorded_measurement("CN(C)[C@@H]1CCN(c2ccccc2C2SC(CC(=O)N3CCC(N4CCc5ccccc5NC4=O)CC3)C(=O)N2CCC(C)(C)C)C1 (stereo partly drawn) [Compound 405]")
"< 1000 nM"
>>> recorded_measurement("CC(C)CCN1C(=O)C(CC(=O)N2CCC(n3cc(-c4ccccc4)[nH]c3=O)CC2)SC1c1ccccc1 (stereo not drawn) [Compound 110]")
"> 5000 nM"

====

- Target Desc: CGRP receptor (SK-N-MC membrane) (Homo sapiens, UniProt O60894+Q16602)
- Construct: Purified SK-N-MC membrane was purchased from Perkin Elmer
- Assay Details: I125-CGRP binding displacement assay on purified SK-N-MC membrane
Recorded Metric: Ki

>>> recorded_measurement("CC(C)CN1C(=O)[C@H](CC(=O)N2CCC(N3CCc4ccccc4NC3=O)CC2)SC1c1cccc(F)c1N1CCN(C(C)(C)C)CC1 (stereo partly drawn) [Compound 494]")
"< 1 µM"
>>> recorded_measurement("CC(C)(C)CCN1C(=O)[C@H](CC(=O)N2CCC(N3CCc4ccccc4NC3=O)CC2)SC1c1ccccc1N1CCNCC1=O (stereo partly drawn) [Compound 512]")
"< 1 µM"
>>> recorded_measurement("CC(C)(C)CCN1C(=O)[C@H](CC(=O)N2CCC(N3CCc4ccccc4NC3=O)CC2)S[C@H]1c1cccc(F)c1C1CCNCC1")
"< 1 µM"

====

- Target Desc: endogenous CGRP receptor (Homo sapiens, UniProt O60894+Q16602)
- Assay Details: CGRP functional antagonism using SK-N-MC-BLA (4C10), β-lactamase transcriptional reporter assay
- Experimental Parameters: SK-N-MC (4C10) cells, inhibition of β-lactamase expression in the presence of 200 pM CGRP
Listed molecules paired with reported IC50
Recorded Metric: IC50

>>> recorded_measurement("CC(C)CCN1C(=O)C(CC(=O)N2CCC(N3Cc4ccccc4NC3=O)CC2)SC1c1ccccc1N(C)C (centres unmarked) [Compound 121]")
"< 1 µM"
>>> recorded_measurement("CC(C)N1CCN(c2c(F)cccc2C2S[C@@](C)(CC(=O)N3CCC(n4c(=O)[nH]c5ncccc54)CC3)C(=O)N2CCC(C)(C)C)CC1 (some centres unmarked) [Compound 445]")
"1 to 5 µM"
>>> recorded_measurement("CN1CCN(c2c(Cl)cccc2C2SC(CC(=O)N3CCC(n4cc(-c5ccccc5)[nH]c4=O)CC3)C(=O)N2CCC(C)(C)C)CC1 (centres unmarked) [Compound 358]")
"> 5 µM"
>>> recorded_measurement("CC(C)(C)N1CCN(c2c(F)cccc2C2S[C@@H](CC(=O)N3CCC(N4CCc5ccccc5NC4=O)CC3)C(=O)N2CC2CCCCC2)CC1 (some centres unmarked) [Compound 515]")
"< 1 µM"
>>> recorded_measurement("CN1CCN(c2ccccc2[C@@H]2S[C@](C)(CC(=O)N3CCC(n4c(=O)[nH]c5ncccc54)CC3)C(=O)N2CCC(C)(C)C)CC1 [Compound 378]")
"< 1 µM"
>>> recorded_measurement("CN1CCN(c2ccccc2[C@H]2SC(CC(=O)N3CCCCC3)C(=O)N2CCC(C)(C)C)CC1 (some centres unmarked) [Compound 97]")
"> 5 µM"
>>> recorded_measurement("CC(C)(C)CCN1C(=O)C(CC(=O)N2CCC(N3Cc4ccccc4NC3=O)CC2)SC1c1ccccc1N1CCOCC1 (centres unmarked) [Compound 160]")
"< 1 µM"
>>> recorded_measurement("CC(C)CCN1C(=O)C(CC(=O)N2CCC(N3Cc4ccccc4NC3=O)CC2)SC1c1c(F)cccc1C(F)(F)F (centres unmarked) [Compound 256]")
"< 1 µM"
>>> recorded_measurement("CC(C)N1CCN(c2c(F)cccc2[C@@H]2S[C@](C)(CC(=O)N3CCC(N4CCc5ccccc5NC4=O)CC3)C(=O)N2CCC(C)(C)C)CC1 [Compound 430]")
"> 5 µM"
>>> recorded_measurement("CC(C)(C)CCN1C(=O)C(CC(=O)N2CCC(N3Cc4ccccc4NC3=O)CC2)SC1c1ccccc1N1CCC(O)CC1 (centres unmarked) [Compound 49]")
"< 1 µM"
>>> recorded_measurement("CC(C)CCN1C(=O)C(CC(=O)N2CCC(N3CCc4ccccc4NC3=O)CC2)SC1CCc1ccccc1 (centres unmarked) [Compound 262]")
"1 to 5 µM"
>>> recorded_measurement("O=C(CC1SC(c2ccccc2)N(CC2CC2)C1=O)N1CCC(N2Cc3ccccc3NC2=O)CC1 (centres unmarked) [Compound 271]")
"< 1 µM"
>>> recorded_measurement("CC(C)N1C(=O)C(CC(=O)N2CCC(N3CCc4ccccc4NC3=O)CC2)SC1c1ccccc1 (centres unmarked) [Compound 24]")
"1 to 5 µM"
>>> recorded_measurement("CC(C)CCN1C(=O)C(CC(=O)N2CCC(N3CCc4ccccc4NC3=O)CC2)SC1c1ccccc1N1CCCCC1 (centres unmarked) [Compound 215]")
"< 1 µM"

====

Listed compounds paired with reported Ki
- Target Desc: CGRP receptor (SK-N-MC membrane) (Homo sapiens, UniProt O60894+Q16602)
- Construct: Purified SK-N-MC membrane was purchased from Perkin Elmer
- Assay Details: I125-CGRP binding displacement assay on purified SK-N-MC membrane
Recorded Metric: Ki

>>> recorded_measurement("CCCCN1CCN(c2ccccc2C2SC(CC(=O)N3CCC(N4CCc5ccccc5NC4=O)CC3)C(=O)N2CCC(C)(C)C)CC1 (stereo not shown) [Compound 365]")
"< 1000 nM"
>>> recorded_measurement("COc1ccc(C2SC(CC(=O)N3CCC(n4cc(-c5ccccc5)[nH]c4=O)CC3)C(=O)N2CCC(C)C)cc1 (stereo not shown) [Compound 286]")
"> 5000 nM"
>>> recorded_measurement("CC(C)CCN1C(=O)C(CC(=O)N2CCC(N3Cc4ccccc4NC3=O)CC2)SC1c1cccnc1 (stereo not shown) [Compound 182]")
"< 1000 nM"
>>> recorded_measurement("COc1ccc(C2SC(CC(=O)N3CCC(n4cc(-c5ccccc5)[nH]c4=O)CC3)C(=O)N2CCC(C)C)cc1OC (stereo not shown) [Compound 19]")
"> 5000 nM"
>>> recorded_measurement("CC(C)(C)CCN1C(=O)C(CC(=O)N2CCC(N3CCc4ccccc4NC3=O)CC2)SC1c1ccccc1 (stereo not shown) [Compound 8]")
"< 1000 nM"
>>> recorded_measurement("CC(C)CCN1C(=O)C(CC(=O)N2CCC(N3CCc4ccccc4NC3=O)CC2)SC1c1c(F)cccc1C(F)(F)F (stereo not shown) [Compound 194]")
"< 1000 nM"
>>> recorded_measurement("CC(C)CCN1C(=O)C(CC(=O)N2CCC(N3CCc4ccccc4NC3=O)CC2)SC1c1ccccc1-n1cccn1 (stereo not shown) [Compound 183]")
"< 1000 nM"
